# assay target: UniProt:P08519
# Sequence (P08519 20-2040): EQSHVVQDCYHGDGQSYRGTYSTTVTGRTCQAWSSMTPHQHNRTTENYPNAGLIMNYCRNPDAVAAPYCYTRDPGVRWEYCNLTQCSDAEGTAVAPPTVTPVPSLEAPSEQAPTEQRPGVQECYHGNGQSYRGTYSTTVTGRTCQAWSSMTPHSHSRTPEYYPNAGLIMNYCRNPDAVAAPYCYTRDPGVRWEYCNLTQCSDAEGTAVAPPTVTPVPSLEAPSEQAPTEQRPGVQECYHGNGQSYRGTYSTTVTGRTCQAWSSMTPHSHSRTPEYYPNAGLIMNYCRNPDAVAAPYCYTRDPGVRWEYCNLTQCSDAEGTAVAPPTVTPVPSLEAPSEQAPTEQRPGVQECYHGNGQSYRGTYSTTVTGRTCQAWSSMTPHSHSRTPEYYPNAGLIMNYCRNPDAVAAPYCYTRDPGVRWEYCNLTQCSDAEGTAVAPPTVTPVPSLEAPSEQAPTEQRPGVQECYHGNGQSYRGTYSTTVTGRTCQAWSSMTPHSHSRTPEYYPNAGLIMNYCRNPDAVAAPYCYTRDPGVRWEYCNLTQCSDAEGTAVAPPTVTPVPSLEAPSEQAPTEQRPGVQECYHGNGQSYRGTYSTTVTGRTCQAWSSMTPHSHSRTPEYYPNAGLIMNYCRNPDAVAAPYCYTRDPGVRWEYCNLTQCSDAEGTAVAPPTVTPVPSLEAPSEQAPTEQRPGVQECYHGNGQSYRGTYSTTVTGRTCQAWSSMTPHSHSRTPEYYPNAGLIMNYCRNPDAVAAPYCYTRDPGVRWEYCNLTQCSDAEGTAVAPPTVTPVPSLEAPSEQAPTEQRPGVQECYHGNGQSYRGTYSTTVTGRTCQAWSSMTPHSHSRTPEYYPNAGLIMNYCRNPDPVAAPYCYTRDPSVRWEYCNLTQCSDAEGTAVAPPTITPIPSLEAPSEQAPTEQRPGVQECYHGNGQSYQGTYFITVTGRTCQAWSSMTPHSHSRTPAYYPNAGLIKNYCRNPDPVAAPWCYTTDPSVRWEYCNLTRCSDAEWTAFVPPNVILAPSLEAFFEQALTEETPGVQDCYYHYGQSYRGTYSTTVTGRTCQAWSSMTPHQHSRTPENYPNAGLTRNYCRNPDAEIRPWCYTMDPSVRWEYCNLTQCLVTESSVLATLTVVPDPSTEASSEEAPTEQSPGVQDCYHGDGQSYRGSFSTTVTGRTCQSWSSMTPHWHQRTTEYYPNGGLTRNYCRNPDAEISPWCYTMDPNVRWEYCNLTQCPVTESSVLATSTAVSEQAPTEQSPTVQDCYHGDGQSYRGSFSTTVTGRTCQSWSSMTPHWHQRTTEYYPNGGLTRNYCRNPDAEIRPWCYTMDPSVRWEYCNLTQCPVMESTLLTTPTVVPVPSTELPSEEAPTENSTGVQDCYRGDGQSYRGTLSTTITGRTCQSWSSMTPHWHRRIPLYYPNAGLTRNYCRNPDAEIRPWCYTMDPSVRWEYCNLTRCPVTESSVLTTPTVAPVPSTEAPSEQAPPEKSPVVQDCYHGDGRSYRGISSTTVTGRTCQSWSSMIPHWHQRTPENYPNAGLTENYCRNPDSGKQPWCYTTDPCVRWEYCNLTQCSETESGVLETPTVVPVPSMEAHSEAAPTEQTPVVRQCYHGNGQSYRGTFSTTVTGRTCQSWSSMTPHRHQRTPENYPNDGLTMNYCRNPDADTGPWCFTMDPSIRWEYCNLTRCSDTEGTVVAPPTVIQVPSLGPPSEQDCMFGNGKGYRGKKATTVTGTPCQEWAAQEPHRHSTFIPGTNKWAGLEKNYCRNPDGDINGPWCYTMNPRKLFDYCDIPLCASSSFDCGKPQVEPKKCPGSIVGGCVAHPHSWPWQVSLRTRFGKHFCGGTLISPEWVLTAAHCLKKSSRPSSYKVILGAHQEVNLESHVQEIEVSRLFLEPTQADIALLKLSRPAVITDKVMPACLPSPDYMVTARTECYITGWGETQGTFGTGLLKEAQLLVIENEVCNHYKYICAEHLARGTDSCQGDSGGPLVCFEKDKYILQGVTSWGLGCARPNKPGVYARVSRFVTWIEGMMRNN
# protocol description: in vitro Lp(a) formation assay: coupling of recombinant human apo(a) with LDL, western blot with densitometry or visual inspection
# test context: 37° C. for 30 minutes; western blot; read-out: IC50 (concentration required to inhibit 50% of Lp(a) formation)
Residues, ends and D or L forms follow the SMILES beside them.
measure: IC50 (µM)
Write the value in µM as a bare number.

IC50 recorded for this compound, NCCCC[C@H](NC(=O)[C@H](Cc1ccc(O)cc1)NC(=O)[C@@H](N)CS)C(=O)O [Cys--Tyr--Lys] (H-Cys-Tyr-Lys-OH) , is 50
